TEST_TARGET: menin/MLL (terbium chelate-labeled menin, FITC-MBM1 peptide) (Homo sapiens, UniProt O00255, T541A)
Construct: Menin (a.a 1-610-6xhis tag, 2.3 mg/mL in 20 mM Hepes)
Sequence (O00255 with tags, fused parts or gaps T541A): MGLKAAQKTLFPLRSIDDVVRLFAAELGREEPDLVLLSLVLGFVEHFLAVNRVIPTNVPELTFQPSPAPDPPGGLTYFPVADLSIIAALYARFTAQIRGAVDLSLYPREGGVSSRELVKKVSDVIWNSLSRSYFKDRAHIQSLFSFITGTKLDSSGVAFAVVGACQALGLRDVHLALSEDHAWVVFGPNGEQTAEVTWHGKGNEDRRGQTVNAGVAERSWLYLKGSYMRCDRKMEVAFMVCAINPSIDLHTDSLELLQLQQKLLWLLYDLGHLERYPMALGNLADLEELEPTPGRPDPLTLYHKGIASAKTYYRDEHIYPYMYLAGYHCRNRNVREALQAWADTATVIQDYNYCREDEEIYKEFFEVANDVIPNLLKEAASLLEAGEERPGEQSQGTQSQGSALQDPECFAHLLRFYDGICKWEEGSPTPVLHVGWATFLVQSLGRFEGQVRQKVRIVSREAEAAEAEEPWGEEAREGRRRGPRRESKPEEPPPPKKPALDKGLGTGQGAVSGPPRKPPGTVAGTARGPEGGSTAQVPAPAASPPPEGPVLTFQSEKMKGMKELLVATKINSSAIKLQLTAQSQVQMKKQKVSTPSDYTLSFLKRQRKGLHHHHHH
PROTOCOL_NOTES: Menin/MLL homogenous time-resolved fluorescence (HTRF) assay
MEASUREMENT_CONTEXT: 30 min incubation
MEASURED_METRIC: pIC50
One number for each entry, as −log10 of the molar value.

Dear colleague, I am looking for the recorded pIC50 of the following compound: CC(=O)N1CCC(CN2CC[C@@H](Cc3cn(-c4ccc(F)cc4C(=O)N4CCC5CC54)c4cncc(C)c34)C2)CC1 (single isomer, unassigned) [Compound 311a]
10.43

Entry COCC(=O)N1CCC(CN2CC(Cc3cn(-c4ccc(F)cc4C(=O)N(C)C(C)C)c4cncc(C)c34)C2)CC1 please
10.43

Lookup CC(=O)N1CC2CC1CC2N1CC[C@@H](Cc2cn(-c3ccc(F)cc3C(=O)N(C)C(C)C)c3cncc(C)c23)C1 (some centres unmarked)
9.62

Input Cc1cncc2c1c(CC1CN([C@@H](C(C)C)[C@H]3C[C@@H](N4CCC(S(C)(=O)=O)CC4)C3)C1)cn2-c1ccc(F)cc1C(=O)N(C)C(C)C [Compound 33a]
10.15

Now consider CCN(C(=O)c1cc(F)ccc1-n1cc(CC2CN(C(C(C)C)[C@H]3C[C@@H](N4C[C@H]5CN(C(C)=O)C[C@@H]5C4)C3)C2)c2c(C)cncc21)C(C)C (mixture of isomers) [Compound 38a] and answer again.
10.44

Okay, here is my list. What is pIC50 for each of these?
1. Cc1cncc2c1c(C[C@@H]1CCN(C[C@H]3CCNC(=O)CC3)C1)cn2-c1ccc(F)cc1C(=O)N(C)C(C)C (single isomer, unassigned) [Compound 169a]
2. CCC1CCCN1C(=O)c1cc(F)ccc1-n1cc(C[C@@H]2CCN(CC3CCN(C(=O)C(C)(C)O)CC3)C2)c2c(C)cncc21 (some centres unmarked)
3. Cc1cncc2c1c(C[C@H]1CCN(CC3CCN(C(=O)C(C)C)CC3)C1)cn2-c1ccc(F)cc1C(=O)N(C)C(C)C (single isomer, unassigned)
4. CC(=O)N1CCC([C@@H](C)N2CC(Cc3cn(-c4ccc(F)cc4C(=O)N(C)C(C)C)c4cncc(C)c34)C2)CC1 (single isomer, unassigned)
5. CC(=O)N1CCCC(N2CC[C@@H](Cc3cn(-c4ccc(F)cc4C(=O)N(C)C(C)C)c4cncc(C)c34)C2)C1 (mixture of isomers)

10.21
9.73
10.31
9.37
9.54

Lab note: each compound below needs its pIC50 filled in.
1. Cc1cncc2c1c(C[C@@H]1CCN(CC3CCN(C(=O)C(C)C)CC3)C1)cn2-c1ccc(F)cc1C(=O)N1CC(O)CC1C (some centres unmarked)
2. Cc1cncc2c1c(C[C@@H]1CCN(CC3CCN(C(=O)C(C)(C)O)CC3)C1)cn2-c1ccc(F)cc1C(=O)N1CCCC12CC2
3. CC(=O)N1CCC(N2CC(Cc3cn(-c4ccc(F)cc4C(=O)N(C)C(C)C)c4cncc(C)c34)C2)C[C@H]1C (single isomer, unassigned) [Compound 292b]
4. Cc1cncc2c1c(CC1CN(CC3CCN(C(=O)C(C)(C)O)CC3)C1)cn2-c1ccc(F)cc1C(=O)N(C)C(C)C
5. CCc1cncc2c1c(C[C@@H]1CCN(CC3CCN(C(C)=O)CC3)C1)cn2-c1ccc(F)cc1C(=O)N(C)C(C)C
6. Cc1cncc2c1c(C[C@@H]1CCN(CC3CCOCC3)C1)cn2-c1ccc(F)cc1C(=O)N1CCC[C@H]1CO
7. Cc1cncc2c1c(CC1CN(C[C@H]3CC[C@H](NS(C)(=O)=O)CC3)C1)cn2-c1ccc(F)cc1C(=O)N(C)C(C)C
8. CC(=O)N1CCC(CN2CC[C@@H](Cc3cn(-c4ccc(F)cc4C(=O)N(C)C(C)C)c4cncc(C)c34)C2)CC1.Cl [Compound 51a]

1: 9.60; 2: 10.47; 3: 9.25; 4: 10.12; 5: 10.51; 6: 9.90; 7: 10.68; 8: 10.62

Would you mind giving pIC50 for every compound in the list below?
1. Cc1cncc2c1c(C[C@@H]1CCN(CC3CCOCC3)C1)cn2-c1ccc(F)cc1C(=O)N(CCO)C(C)C
2. Cc1cncc2c1c(C[C@@H]1CCN(C[C@H]3CCNC(=O)CC3)C1)cn2-c1ccc(F)cc1C(=O)N1[C@H](C)CC[C@H]1C (single isomer, unassigned) [Compound 352a]
3. CCC([C@H]1C[C@@H](N2CCN(C(C)=O)CC2)C1)N1CC[C@H](Cc2cn(-c3ccc(F)cc3C(=O)N(C)C(C)C)c3cncc(C)c23)C1 (mixture of isomers)
4. CCC([C@H]1C[C@@H](N2C[C@H]3CN(C(C)=O)C[C@@H]3C2)C1)N1CC[C@@H](Cc2cn(-c3ccc(F)cc3C(=O)N(C)C(C)C)c3cncc(Cl)c23)C1 (some centres unmarked) [Compound 26a]
5. Cc1cncc2c1c(C[C@@H]1CCN(C(CCCN3CCC(S(C)(=O)=O)CC3)C(C)C)C1)cn2-c1ccc(F)cc1C(=O)N(C)C(C)C (mixture of isomers)

10.46
9.99
10.06
10.44
10.68
